Reported IC50 by item:
# System: HeLa
# ASSAY PROTOCOL: Cytotoxicity against human HeLa cells after 72 hrs
# Type: functional, cell-based

A selection of reference data follows.
>  <SAMPLE SMILES>
CCCCCc1cc2cn([C@@H]3O[C@H](CO)[C@@H](O)[C@H](O)[C@H]3O)c(=O)nc2o1

>  <MEASURED TARGET>
HeLa

>  <IC50>
> 250 µM

$$$$
>  <SAMPLE SMILES>
CC(=O)OC[C@H]1O[C@@H](n2cc(C#Cc3ccc[n+](C)c3)c(=O)[nH]c2=O)[C@H](OC(C)=O)[C@@H](OC(C)=O)[C@@H]1OC(C)=O

>  <MEASURED TARGET>
HeLa

>  <IC50>
> 250 µM

$$$$
>  <SAMPLE SMILES>
CC(=O)OC[C@H]1O[C@@H](n2cc(C#Cc3cccnc3)c(=O)[nH]c2=O)[C@H](OC(C)=O)[C@@H](OC(C)=O)[C@@H]1OC(C)=O

>  <MEASURED TARGET>
HeLa

>  <IC50>
> 250 µM

$$$$
>  <SAMPLE SMILES>
C#Cc1cn([C@@H]2O[C@H](CO)[C@@H](O)[C@H](O)[C@H]2O)c(=O)nc1N

>  <MEASURED TARGET>
HeLa

>  <IC50>
≥ 250 µM

$$$$
>  <SAMPLE SMILES>
CCCCCC#Cc1cn([C@@H]2O[C@H](CO)[C@@H](O)[C@H](O)[C@H]2O)c(=O)nc1N

>  <MEASURED TARGET>
HeLa

>  <IC50>
≥ 250 µM

$$$$
>  <SAMPLE SMILES>
C[n+]1cccc(C#Cc2cn([C@@H]3O[C@H](CO)[C@@H](O)[C@H](O)[C@H]3O)c(=O)[nH]c2=O)c1

>  <MEASURED TARGET>
HeLa

>  <IC50>
> 250 µM

$$$$
>  <SAMPLE SMILES>
O=c1[nH]c(=O)n([C@@H]2O[C@H](CO)[C@@H](O)[C@H](O)[C@H]2O)cc1C#Cc1cccnc1

>  <MEASURED TARGET>
HeLa

>  <IC50>
> 250 µM

$$$$
>  <SAMPLE SMILES>
C[n+]1ccccc1C#Cc1cn([C@@H]2O[C@H](CO)[C@@H](O)[C@H](O)[C@H]2O)c(=O)[nH]c1=O

>  <MEASURED TARGET>
HeLa

>  <IC50>
244 µM

$$$$

## Input So what's the measured IC50 for this one? O=c1nc(O)c(C#Cc2ccccc2)cn1[C@@H]1O[C@H](CO)[C@@H](O)[C@H](O)[C@H]1O
## Output 5.4 µM

## Input So what's the measured IC50 for this one? O=c1[nH]c(=O)n([C@@H]2O[C@H](CO)[C@@H](O)[C@H](O)[C@H]2O)cc1CCc1ccccc1
## Output 43 µM

## Input So what's the measured IC50 for this one? CC(C)(C)c1ccc(C#Cc2cn([C@@H]3O[C@H](CO)[C@@H](O)[C@H](O)[C@H]3O)c(=O)nc2N)cc1
## Output 140 µM

## Input So what's the measured IC50 for this one? CCCCCC#Cc1cn([C@@H]2O[C@H](CO)[C@@H](O)[C@H](O)[C@H]2O)c(=O)[nH]c1=O
## Output 29 µM

###

# Tested on: L1210
# ASSAY PROTOCOL: Cytotoxicity against mouse L1210 cells after 48 hrs
# Format: functional, cell-based
# ASSAY CONTEXT: L1210, 48 h
pIC50: −log10 of the molar value.
MEASUREMENT KIND: pIC50

>  <SAMPLE SMILES>
CCCC#Cc1cn([C@@H]2O[C@H](CO)[C@@H](O)[C@H](O)[C@H]2O)c(=O)nc1N

>  <MEASURED TARGET>
L1210

>  <MEASUREMENT KIND>
pIC50

>  <ENDPOINT RESULT>
≤ 3.60

$$$$
>  <SAMPLE SMILES>
O=c1[nH]c(=O)n([C@@H]2O[C@H](CO)[C@@H](O)[C@H](O)[C@H]2O)cc1C#Cc1cccnc1

>  <MEASURED TARGET>
L1210

>  <MEASUREMENT KIND>
pIC50

>  <ENDPOINT RESULT>
< 3.60

$$$$

## Input So what's the measured pIC50 for this one? Nc1nc(=O)n([C@@H]2O[C@H](CO)[C@@H](O)[C@H](O)[C@H]2O)cc1C#Cc1ccccc1
## Output ≤ 3.60

## Input So what's the measured pIC50 for this one? CC(C)(C)c1ccc(C#Cc2cn([C@@H]3O[C@H](CO)[C@@H](O)[C@H](O)[C@H]3O)c(=O)nc2N)cc1
## Output < 3.60

## Input So what's the measured pIC50 for this one? C[n+]1cccc(C#Cc2cn([C@@H]3O[C@H](CO)[C@@H](O)[C@H](O)[C@H]3O)c(=O)[nH]c2=O)c1
## Output < 3.60

## Input So what's the measured pIC50 for this one? CC(=O)OC[C@H]1O[C@@H](n2cc(C#Cc3cccnc3)c(=O)[nH]c2=O)[C@H](OC(C)=O)[C@@H](OC(C)=O)[C@@H]1OC(C)=O
## Output < 3.60

## Input So what's the measured pIC50 for this one? CCCCCc1cc2cn([C@@H]3O[C@H](CO)[C@@H](O)[C@H](O)[C@H]3O)c(=O)nc2o1
## Output ≤ 3.60

## Input So what's the measured pIC50 for this one? C#Cc1cn([C@@H]2O[C@H](CO)[C@@H](O)[C@H](O)[C@H]2O)c(=O)nc1N
## Output ≤ 3.60

## Input So what's the measured pIC50 for this one? CCCCCC#Cc1cn([C@@H]2O[C@H](CO)[C@@H](O)[C@H](O)[C@H]2O)c(=O)nc1N
## Output ≤ 3.60
